Assay: small-molecule binders of probe aNOTCH2, primary screen, biochemical, small-molecule microarray, 635/667 nm fluorescence (AID 1121);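 also: score merges feature fluorescence read at 667 nm with its signal to noise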
Settings: higher = more signal
The threshold is inclusive: composite z-score of exactly -0.1 counts as met; values below receive not met.

// known answers, use as guide
{"columns": ["Molecule", "Group Label"],
 "data": [
  ["CCOC(=O)C1=CCC(c2ccc(C#N)cc2)N(S(=O)(=O)c2ccc(C)cc2)C1 (configuration not stated)", "met"],
  ["COC(=O)c1ccc(OC)c(/C=C\\CC(OC(C)=O)c2ccccc2)c1 (configuration not stated)", "not met"],
  ["CC(C)C[C@@H]1NC(=O)[C@@H]2C[C@H](C(=O)NCCCCCC[N+](C)(C)C)[C@H](c3ccc(O)cc3)N2C1=O", "not met"],
  ["COC(=O)c1ccc(C(O)C2C=CC3C(=O)N(C)C(=O)C3N2NC(=O)OC(C)(C)C)o1 (configuration not stated)", "met"],
  ["CC(C)N1CC=CC23O[C@@H]4C=CCOC(=O)[C@@H]4[C@H]2C(=O)N(CCO)[C@@H]3C1=O (some centres not stated)", "not met"]
]}

In: Please check the record C=CCOC(=O)[C@H]1[C@@H]2C(=O)O[C@@H](c3ccccc3)[C@@H](c3ccccc3)N2[C@@H](c2ccc(OCCOC(=O)[C@@H]3C[C@@H]4C(=O)N5CCC[C@H]5C(=O)N4[C@@H]3c3ccc(O)cc3)cc2)[C@]12C(=O)Nc1ccccc12 and state if its composite z-score is at or above -0.1.
Out: not met

In: Lookup CN(C)CCCCNC(=O)[C@H]1C[C@H]2C(=O)N[C@@H](Cc3ccccc3)C(=O)N2[C@H]1c1ccc(O)cc1
Out: met
